Listing: growth of selected compounds
- System: ACHN renal
- MEASUREMENT DESCRIPTION: NCI-60 one-dose screen, 48 h (100 = growth as untreated, 0 = no growth, -100 = all killed)
- EXPERIMENTAL SETUP: 10 µM
The panel holds about 83,000 compounds, 20% with a hit somewhere; the sample as a whole holds those more often. The source made the active and inactive calls. Rule for the calls: active = growth percent below 10; inactive = the rest.
PROPERTY: growth

compound="CC(=O)OCC(OC(C)=O)C(OC(C)=O)C(OC(C)=O)C(OC(C)=O)C(/C=N/Nc1ccccc1)=N/Nc1ccccc1 (centres undefined)" reported_measurement="56.2% (inactive)"
compound=NC(=O)SCC(=O)NNc1ccccc1 reported_measurement="81.1% (inactive)"
compound=Oc1ccc(N=Nc2ccccn2)c(O)c1 reported_measurement="13.8% (inactive)"
compound="COc1cccc2c1C(=O)c1c(O)c3c(c(O)c1C2=O)C[C@@](O)(C(C)=O)C[C@@H]3OC1CC(N)C(O)C(C)O1 (some centres undefined)" reported_measurement="0.546% (active)"
compound="OCC(O)C(O)C(O)C(/C=N/Nc1ccccc1)=N/Nc1ccccc1 (centres undefined)" reported_measurement="67.5% (inactive)"
compound=Cc1nc(N=C(N)N)nc2ccc3ccccc3c12 reported_measurement="15.1% (inactive)"
compound=O=C1C=C(O)c2ccccc2C1=O.[Ag] reported_measurement="95.2% (inactive)"
compound=CCO/C=C1\SC(=S)N(c2cccc(O)c2)C1=O reported_measurement="102% (inactive)"
compound=O=C1NC(=O)c2cc([N+](=O)[O-])ccc21 reported_measurement="103% (inactive)"
compound=COc1c(O)cc2oc3cc(O)c(CC=C(C)C)c(O)c3c(=O)c2c1CC=C(C)C reported_measurement="58.8% (inactive)"
compound=CC(=O)Nc1cc(C)ccc1C reported_measurement="106% (inactive)"
compound=NC1=C(Cl)C(=O)c2ccccc2C1=O reported_measurement="76.8% (inactive)"
compound="CCCCCC(C)c1ccc(O)c(C)c1 (centres undefined)" reported_measurement="101% (inactive)"
compound=Cc1cc(O)c(C(C)C)cc1Cl reported_measurement="106% (inactive)"

* * *

- Test system: BT-549 breast
- MEASUREMENT DESCRIPTION: NCI-60 one-dose screen, 48 h
- EXPERIMENTAL SETUP: 10 µM
This is part of a sample that, as a whole, favours compounds with a hit. Of some 83,000 tested, about 20% had one in any assay. Calls of active or inactive are those of the source. The calls were made as follows: active = growth percent below 10; inactive = the rest.
Outcome codes: active, inactive

molecule=O=[N+]([O-])C1=C(c2ccccc2)SC=C(c2ccccc2)S1 assigned_class=inactive
molecule=O=C1C=C(O)c2ccccc2C1=O.[Ag] assigned_class=inactive
molecule="CO[C@H](C(=O)[C@@H](O)[C@@H](C)O)[C@@H]1Cc2cc3cc(OC4CC(OC5CC(O)C(O)C(C)O5)C(O)C(C)O4)c(C)c(O)c3c(O)c2C(=O)[C@H]1OC1CC(OC2CC(OC3CC(C)(O)C(O)C(C)O3)C(O)C(C)O2)C(O)C(C)O1 (stereo not given in full)" assigned_class=active
molecule="CCN(CC)c1ccc(NC(C(=O)c2ccccc2)c2ccccc2)cc1 (stereo not given)" assigned_class=active
molecule=N=S(c1ccccc1[N+](=O)[O-])c1ccccc1[N+](=O)[O-] assigned_class=inactive
molecule=CCCCCCCCCCCC[N+](C)(C)Cc1ccccc1 assigned_class=active
molecule=CC[N+](CC)=c1ccc2nc3c(cc(N)c4ccccc43)oc-2c1 assigned_class=active
molecule=COc1c(O)cc2oc3cc(O)c(CC=C(C)C)c(O)c3c(=O)c2c1CC=C(C)C assigned_class=inactive
molecule="OCC(O)C(O)C(O)C(/C=N/Nc1ccccc1)=N/Nc1ccccc1 (stereo not given)" assigned_class=inactive
molecule="COC1OCC(O)C(O)C1O (stereo not given)" assigned_class=inactive

* * *

Each record here notes measured growth.
- System: SF-295 CNS
- MEASUREMENT DESCRIPTION: NCI-60 one-dose screen, 48 h (100 = growth as untreated, 0 = no growth, -100 = all killed)
- EXPERIMENTAL SETUP: 10 µM
The panel holds about 83,000 compounds, 20% with a hit somewhere; the sample as a whole holds those more often.
PROPERTY: growth (%)

compound="Cc1cc(NS(=O)(=O)c2ccc(N=Nc3cc(N=Nc4ccc(S(=O)(=O)Nc5cc(C)nc(C)n5)cc4)c4c(NC(=O)C(Cl)Cl)cccc4c3OC(=O)C(Cl)Cl)cc2)nc(C)n1 (tested in a mixture with another compound)" property=growth reported_measurement=86.2
compound=CCN1/C(=C/C=C/C=C/c2sc3ccccc3[n+]2CC)Sc2ccccc21 property=growth reported_measurement=-23.8
compound=CC1=CC(C)=Nc2ccc(Cl)cc2N1 property=growth reported_measurement=107
compound=NC(=O)SCC(=O)NNc1ccccc1 property=growth reported_measurement=94.6
compound=CCCCCCCCCCCC[N+](C)(C)Cc1ccccc1 property=growth reported_measurement=46.3
compound="CCN(CC)c1ccc(NC(C(=O)c2ccccc2)c2ccccc2)cc1 (stereo not given)" property=growth reported_measurement=61.2
compound=O=[N+]([O-])C1=C(c2ccccc2)SC=C(c2ccccc2)S1 property=growth reported_measurement=93.7
compound=COc1ccc(CC(=O)c2ccc(O)cc2O)cc1 property=growth reported_measurement=113
compound=O=C(/C=C/c1cccnc1)c1ccccc1 property=growth reported_measurement=112
compound=N=S(c1ccccc1[N+](=O)[O-])c1ccccc1[N+](=O)[O-] property=growth reported_measurement=99.5
compound="CSC1SCC2C(=O)N(C)C(C(C)C)C(=O)OCC(NC(=O)c3cnc4ccccc4n3)C(=O)NC(C)C(=O)N(C)C1C(=O)N(C)C(C(C)C)C(=O)OCC(NC(=O)c1cnc3ccccc3n1)C(=O)NC(C)C(=O)N2C (stereo not given)" property=growth reported_measurement=-22.3
compound=O=C(/C=C/c1ccccn1)c1ccccc1 property=growth reported_measurement=87.5
compound="CS(=O)(=O)OC1CC(n2ccc(=O)[nH]c2=O)OC1COC(c1ccccc1)(c1ccccc1)c1ccccc1 (stereo not given)" property=growth reported_measurement=110
compound=O=C(O)COc1ccc(OCC(=O)O)cc1 property=growth reported_measurement=-9.53
compound=O=C1C=C(O)c2ccccc2C1=O.[Ag] property=growth reported_measurement=97
compound=CCCCCCCCCCSC(=N)N property=growth reported_measurement=56.4
compound=COc1c(O)cc2oc3cc(O)c(CC=C(C)C)c(O)c3c(=O)c2c1CC=C(C)C property=growth reported_measurement=56.2
compound="OCC(O)C(O)C(O)C(/C=N/Nc1ccccc1)=N/Nc1ccccc1 (stereo not given)" property=growth reported_measurement=83.6
compound="COC(=O)C1C(O)C(C)C(O)C(C)C=C(C)C2=C3C(=C(C)C(=O)c4c(O)c(c(C)c(OC(C)=O)c43)NC(=O)C(C)=C/C=C\\C(C)C(O)C(C)C1O)OCO2 (stereo not given)" property=growth reported_measurement=108
compound=CC[N+](CC)=c1ccc2nc3c(cc(N)c4ccccc43)oc-2c1 property=growth reported_measurement=-83

* * *

- Tested on: HS 578T breast
- MEASUREMENT DESCRIPTION: NCI-60 one-dose screen, 48 h
- EXPERIMENTAL SETUP: 10 µM
Compounds without any hit were thinned out: in the full panel of roughly 83,000, 20% have a hit. Activity calls are given as the source filed them. The calls were made as follows: active = growth percent below 10; inactive = the rest.
Classes used: label 1 (active), label 0 (inactive)

compound="CC(=O)OCC(OC(C)=O)C(OC(C)=O)C(OC(C)=O)C(OC(C)=O)C(/C=N/Nc1ccccc1)=N/Nc1ccccc1 (stereo not given)" assigned_class="label 0"
compound=CC(=O)Nc1cc(C)ccc1C assigned_class="label 0"
compound="CS(=O)(=O)OC1CC(n2ccc(=O)[nH]c2=O)OC1COC(c1ccccc1)(c1ccccc1)c1ccccc1 (stereo not given)" assigned_class="label 0"
compound=CCCCCCCCCCCC[N+](C)(C)Cc1ccccc1 assigned_class="label 0"
compound=CC[N+](CC)=c1ccc2nc3c(cc(N)c4ccccc43)oc-2c1 assigned_class="label 1"

* * *

- Test system: UO-31 renal
- MEASUREMENT DESCRIPTION: NCI-60 one-dose screen, 48 h
- EXPERIMENTAL SETUP: 10 µM
The panel holds about 83,000 compounds, 20% with a hit somewhere; the sample as a whole holds those more often. The source made the active and inactive calls. How the source made its calls: active means growth percent below 10; inactive means the rest.
Classes used: true = active, false = inactive

compound=O=C1C=C(O)c2ccccc2C1=O.[Ag] assigned_class=false
compound=CN1CCN(CCCN2c3ccccc3Sc3ccc(C(F)(F)F)cc32)CC1 assigned_class=false
compound="COc1cccc2c1C(=O)c1c(O)c3c(c(O)c1C2=O)C[C@@](O)(C(=O)CO)C[C@@H]3OC1CC(N)C(O)C(C)O1 (stereo partly specified)" assigned_class=true
compound=CCCCCCCCCCCC[N+](C)(C)Cc1ccccc1 assigned_class=false
compound=Cc1nc(N=C(N)N)nc2ccc3ccccc3c12 assigned_class=true
compound=CC(C)(C)CC(C)(C)c1ccc(OCCO)cc1 assigned_class=false
compound=CCO/C=C1\SC(=S)N(c2cccc(O)c2)C1=O assigned_class=false
compound="COc1cccc2c1C(=O)c1c(O)c3c(c(O)c1C2=O)C[C@@](O)(C(C)=O)C[C@@H]3OC1CC(N)C(O)C(C)O1 (stereo partly specified)" assigned_class=false
compound=Cc1cc(O)c(C(C)C)cc1Cl assigned_class=false
compound=Oc1ccc(N=Nc2ccccn2)c(O)c1 assigned_class=true
compound="COC(=O)C1C(O)C(C)C(O)C(C)C=C(C)C2=C3C(=C(C)C(=O)c4c(O)c(c(C)c(OC(C)=O)c43)NC(=O)C(C)=C/C=C\\C(C)C(O)C(C)C1O)OCO2 (stereo unspecified)" assigned_class=false
compound="OCC(O)C(O)C(O)C(/C=N/Nc1ccccc1)=N/Nc1ccccc1 (stereo unspecified)" assigned_class=false
compound="CSC1SCC2C(=O)N(C)C(C(C)C)C(=O)OCC(NC(=O)c3cnc4ccccc4n3)C(=O)NC(C)C(=O)N(C)C1C(=O)N(C)C(C(C)C)C(=O)OCC(NC(=O)c1cnc3ccccc3n1)C(=O)NC(C)C(=O)N2C (stereo unspecified)" assigned_class=false
compound=COc1ccc(CC(=O)c2ccc(O)cc2O)cc1 assigned_class=false
compound=NC(=O)SCC(=O)NNc1ccccc1 assigned_class=false
compound=CC(=O)Nc1cc(C)ccc1C assigned_class=false
compound=O=[N+]([O-])C1=C(c2ccccc2)SC=C(c2ccccc2)S1 assigned_class=false
compound=Clc1cc(Cl)c(Cl)nn1 assigned_class=false
compound=O=C(/C=C/c1cccnc1)c1ccccc1 assigned_class=false
compound="CCCCCC(C)c1ccc(O)c(C)c1 (stereo unspecified)" assigned_class=false
compound="CS(=O)(=O)OC1CC(n2ccc(=O)[nH]c2=O)OC1COC(c1ccccc1)(c1ccccc1)c1ccccc1 (stereo unspecified)" assigned_class=false
compound="COC1OCC(O)C(O)C1O (stereo unspecified)" assigned_class=false
compound=NNc1c2ccccc2nc2ccccc12 assigned_class=false
compound=COc1c(O)cc2oc3cc(O)c(CC=C(C)C)c(O)c3c(=O)c2c1CC=C(C)C assigned_class=false
compound="OC(CN1CCCC2CCCCC21)c1cc2ccccc2c2ccccc12 (stereo unspecified)" assigned_class=false
compound=NC1=C(Cl)C(=O)c2ccccc2C1=O assigned_class=false
